experiment: growth of efflux-deficient E. coli DRC39 – strain DRC39, OD650, 48 h, E. coli filamentation inducers, primary screen (AID 1179);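 note: screen aims at cell division blockers that make cells filament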; conditions: E. coli DRC39 delta-acrAB growth, higher = more signal, called active from +8 up or from −8 down

molecule	z-score
[N-]=[N+]=Nc1ccccc1C[C@@]1(C(=O)NCCN2CCOCC2)N=C(c2ccc(OCCCO)cc2)O[C@@H]1c1ccccc1N=[N+]=[N-]	-1.02
COc1cccc(C)c1NC(=O)O[C@H]1[C@H](OC(=O)Nc2ccccc2-c2ccccc2)[C@H](OC(=O)Nc2ccccc2-c2ccccc2)[C@@H](OC)O[C@@H]1CO	0.0517
Cc1cc(C)c(C(O)C2C=CC3C(=O)N(c4ccccc4)C(=O)C3N2Nc2ccccc2F)c(C)c1 (stereo unspecified)	-0.439
CCCCC(CC)C(O)C1C=CC2C(=O)N(C)C(=O)C2N1Nc1ccccc1 (stereo unspecified)	-0.389
CC1CC/C=C\[C@H]2OC34C=CCN(C(C)(C)C)C(=O)[C@H]3N(CCCCCO)C(=O)[C@@H]4C2C(=O)O1 (stereo partly specified)	0.338
CC(CO)N1C(=O)[C@@H]2[C@H]3C(=O)OCC=C[C@H]3OC23C=CCN(Cn2nnc4ccccc42)C(=O)[C@@H]13 (stereo partly specified)	-0.331
COCCOC(=O)N1C(=O)[C@@]2(c3cc(C#CC4=CCCCC4)ccc31)[C@H](c1ccccc1OCCO)N1[C@H](c3ccccc3)[C@H](c3ccccc3)OC(=O)[C@H]1[C@@H]2C(=O)N1CCN(c2ncccn2)CC1	-1.22
O=C1N(Cc2ccccc2)c2ccccc2C[C@]12N=C(c1ccc(OCCCO)cc1)O[C@@H]2c1ccccc1	-0.2
O=C(C1N=C(c2ccc(OCCCO)cc2)N(c2ccccc2)O1)N1CCCCC1 (stereo unspecified)	0.15
CCC#CCN(Cc1ccccc1Br)[C@H](/C=C/C1CC1)[C@@H](O)Cc1ccccc1	0.706
COc1cc(NN2C(C(O)c3ccc(N(C)C)cc3)C=CC3C(=O)N(c4ccccc4)C(=O)C32)cc(OC)c1OC (stereo unspecified)	-1.45
C=CCN1C(=O)[C@]2(CCC(=O)OC(C)(C)C)N=C(c3ccc(OCCCO)cc3)O[C@@H]2c2ccccc21	0.685
CC(C)NC(=O)[C@@]1(C)c2ccccc2C(=O)N(Cc2ccc(OC(F)(F)F)cc2)[C@H]1c1ccc(CO)cc1	-0.6
CN(C)C(=O)[C@@]1(Cc2ccccc2)N=C(c2ccc(OCCCO)cc2)O[C@H]1c1ccccc1	-0.146
CC(C)N1C(=O)C[C@@](C(=O)O)(c2ccc([N+](=O)[O-])cc2)[C@H]1c1ccc(CO)cc1	0.684
O=C1CS(=O)(=O)C(c2cccc([N+](=O)[O-])c2)N1c1ccccc1 (stereo unspecified)	1.21
